system: IGROV-ET; assay: Inhibition of cells growth by colorimetric assay (SRB), IGROV-ET; assay type: cell-based; settings: Homo sapiens, 48 h, read-out: IGROV-ET LC50, IGROV-ET; SRB, 48 hours exposure
Quick reference: CC50 of the listed items.
Numeric answer only, unit µM assumed.

Below are worked cases with known answers.
compound	obs value
C=COC(=O)Oc1cc2c(cc1OC)[C@@]1(CS[C@@H]3c4c(OC(C)=O)c(C)c5c(c4[C@H](COC1=O)N1C3[C@H]3c4c(cc(C)c(OC)c4O)C[C@@H]([C@@H]1O)N3C)OCO5)N(C(=O)OC=C)CC2 (stereo partly drawn) [Compound 100]	11.1
COc1cc2c(cc1O)CCN(C)[C@]21CS[C@@H]2c3c(OC(C)=O)c(C)c4c(c3[C@H](COC1=O)N1C2[C@H]2c3c(cc(C)c(OC)c3O)C[C@@H]([C@@H]1O)N2C)OCO4 (stereo partly drawn) [Compound 93]	12.9
C=COC(=O)N1CCc2cc(O)c(OC)cc2[C@@]12CS[C@@H]1c3c(OC(C)=O)c(C)c4c(c3[C@H](COC2=O)N2C1[C@H]1c3c(cc(C)c(OC)c3O)C[C@@H]([C@@H]2O)N1C)OCO4 (stereo partly drawn) [Compound 95]	12
COC1=C(C)C(=O)C2=C(C1=O)[C@@H]1C3[C@@H]4SC[C@]5(NCCc6cc(O)c(OC)cc65)C(=O)OC[C@@H](c5c6c(c(C)c(OC(C)=O)c54)OCO6)N3[C@@H](O)[C@H](C2)N1C (stereo partly drawn) [Compound 101]	0.246
COc1cc2c(cc1O)CCN[C@]21CS[C@@H]2c3c(OC(C)=O)c(C)c4c(c3[C@H](COC1=O)N1C2[C@H]2c3c(cc(C)c(OC)c3OC(C)C)C[C@@H]([C@@H]1O)N2C)OCO4 (stereo partly drawn) [Compound 102]	7.81

Would you kindly look at the next entry?
*Q* Give the measured CC50 of COc1cc2c(cc1OC)[C@@]1(CS[C@@H]3c4c(OC(C)=O)c(C)c5c(c4[C@H](COC1=O)N1C3[C@H]3c4c(cc(C)c(OC)c4OC)C[C@@H]([C@@H]1O)N3C)OCO5)NCC2 (stereo partly drawn) [Compound 87] .
*A* 5.84

* * *

Recorded IC50, one value per entry.
test system: MEL-28; test: Inhibition of cell growth by counting cells, MEL-28; assay type: cell-based, human; settings: Homo sapiens, SK-MEL-28, 72 h; three days of incubation; read-out: IC50 (molar) MEL-28
Express your answer in µM, writing the number without its unit.

molecule	measured endpoint	obs value
CCCCCCCCCCCCCCCC(=O)Oc1cc2c(cc1OC)[C@@]1(CS[C@@H]3c4c(OC(C)=O)c(C)c5c(c4[C@H](COC1=O)N1C3[C@@H]3N[C@@H](Cc4cc(C)c(OC)c(OC(=O)CCCCCCCCCCCCCCC)c43)[C@@H]1C#N)OCO5)NCC2 (some centres unmarked) [Compound 208]	IC50	8.11

*Q* Find the recorded IC50 belonging to COc1cc2c(cc1OC(=O)/C=C/c1ccccc1)CCN[C@]21CS[C@@H]2c3c(OC(C)=O)c(C)c4c(c3[C@H](COC1=O)N1C2[C@H]2c3c(cc(C)c(OC)c3OC(=O)/C=C/c3ccccc3)C[C@@H]([C@@H]1C#N)N2C)OCO4 (some centres unmarked) [Compound 10] and report it.
*A* 0.0097
